systemUnderTest: T1, human IL-23 (Sino Biological, CT048-H08H) (human, UniProt Q9NPF7 20-189; P29460 23-328)
T1 construct: also called human IL-23 protein; Human IL-23 p19
T1 sequence (looked up) 1: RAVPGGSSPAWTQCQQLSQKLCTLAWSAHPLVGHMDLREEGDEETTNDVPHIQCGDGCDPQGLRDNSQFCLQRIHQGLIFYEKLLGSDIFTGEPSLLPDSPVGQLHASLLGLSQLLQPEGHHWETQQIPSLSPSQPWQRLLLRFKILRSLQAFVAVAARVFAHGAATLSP
T1 sequence (looked up) 2: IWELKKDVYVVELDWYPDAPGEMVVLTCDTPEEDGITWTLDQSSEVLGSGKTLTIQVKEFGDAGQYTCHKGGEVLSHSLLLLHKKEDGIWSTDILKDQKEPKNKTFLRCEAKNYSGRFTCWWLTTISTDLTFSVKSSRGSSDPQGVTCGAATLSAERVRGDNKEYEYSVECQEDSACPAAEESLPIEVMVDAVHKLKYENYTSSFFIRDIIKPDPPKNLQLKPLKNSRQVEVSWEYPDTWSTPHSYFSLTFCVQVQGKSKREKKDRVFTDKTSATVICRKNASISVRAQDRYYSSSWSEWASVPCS
protocolDetails: competition ELISA, blocks IL-23/IL-23R; IL-23R coated, biotin-IL-23 + sample gradient
valueKind: IC50 (nM)
Answer with a number only, understood to be in nM.

binder | valueKind | endpointValue
Ch29 (antibody, human IgG1, kappa, L234A L235A, V domains shown, chimeric: murine variable regions on hIgG1/hkappa; also called chimeric antibody of mAb29) VH: QVQLKESGPGLVAPSQSLSITCTVSGFSLTSYAISWVRQPPGKGLEWLGVIWTGGGTNYNSGIKSRLTISKDNSKSQVFLNMNSLQTEDTARYYCVREGDYGSYAGAMDYWGQGTSVTVSS VL: DIVLTQSPASLAVSLGQRATISCRASESVDYYGISSMHWFQQKPGQPPKLLIYRASNLESGIPARFSGSGSRTDFTLTINRVETDDVATYYCQQANKDPYTFGGGTKLEIKR | IC50 | 0.386
risankizumab (antibody, human IgG1, kappa, L234A L235A, V domains shown, control anti-IL-23 antibody; also called control molecule) VH: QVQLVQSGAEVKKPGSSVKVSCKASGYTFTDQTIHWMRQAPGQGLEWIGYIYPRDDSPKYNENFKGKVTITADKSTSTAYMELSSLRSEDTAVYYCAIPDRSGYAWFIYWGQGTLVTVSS VL: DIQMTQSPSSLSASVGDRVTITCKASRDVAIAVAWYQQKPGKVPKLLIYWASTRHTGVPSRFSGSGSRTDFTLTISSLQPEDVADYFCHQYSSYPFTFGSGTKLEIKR | IC50 | 0.61

// switching to the query binder
Query block: For the binder Hu29-19 (antibody, human IgG1, kappa, L234A L235A, V domains shown, humanized mAb29, IgG1/kappa) VH: QVTLKESGPVLVKPTETLTLTCTVSGFSLTNYAISWVRQPPGKGLEWLGVIWTGGGTNYNSGIKSRLTISKDNSKSQVVLTMTNMDPVDTARYYCVREGDYGSYAGAMDYWGQGTTVTVSS VL: DIVLTQSPDSLAVSLGERATINCRASESVDYYGISSMHWFQQKPGQPPKLLIYRASNLESGIPARFSGSGSRTDFTLTISSLQAEDVAVYYCQQANKDPYTFGGGTKVEIKR , what IC50 is on record?
Result block: 0.478
